This section presents compounds with their documented IC50 values.
- Study target: GSK3β (Homo sapiens)
- Sequence (P49841 whole entry, species assumed): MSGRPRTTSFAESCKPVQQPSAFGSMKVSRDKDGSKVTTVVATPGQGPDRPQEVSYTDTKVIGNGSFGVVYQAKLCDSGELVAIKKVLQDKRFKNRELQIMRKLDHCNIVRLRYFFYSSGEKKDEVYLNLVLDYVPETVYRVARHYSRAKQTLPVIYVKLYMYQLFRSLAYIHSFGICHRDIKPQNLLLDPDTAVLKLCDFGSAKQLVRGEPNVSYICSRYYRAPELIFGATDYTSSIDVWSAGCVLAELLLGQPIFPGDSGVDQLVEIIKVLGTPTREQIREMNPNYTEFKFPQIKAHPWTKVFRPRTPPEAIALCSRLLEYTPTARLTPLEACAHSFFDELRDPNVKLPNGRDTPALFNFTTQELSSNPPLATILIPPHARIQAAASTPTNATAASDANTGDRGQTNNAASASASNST
- Test summary: GSK3beta assay (SPA, biotinylated phosphorylated CREB peptide, ATP-P33)
- Format: biochemical
- Settings: −log IC50 (M); given as ranges (>8; 7-8; <7); read-out: pIC50 (GSK3beta) (converted)

Consider the following illustrative entries.
1. O=C(O)Cc1cccc(Nc2ncc3nnn(-c4cccc(F)c4)c3n2)c1: 1e-08 to 1e-07 M
2. COCc1cccc(-n2nnc3cnc(Nc4ccc(C(=O)O)cc4)nc32)c1: < 1e-08 M
3. CN(C)C(=O)c1ccc(Nc2ncc3nnn(-c4cccc(CC#N)c4)c3n2)cc1: < 1e-08 M
4. N#Cc1ccc(Nc2ncc3nnn(-c4cccc(F)c4)c3n2)cc1Cl: < 1e-08 M
5. CS(=O)(=O)Nc1cccc(Nc2ncc3nnn(-c4cccc(CC(N)=O)c4)c3n2)c1: < 1e-08 M

Q: Lab note: record IC50 of COCCOCc1cccc(-n2nnc3cnc(Nc4ccc(F)cc4)nc32)c1 tested on GSK3β (Homo sapiens).
Ans: < 1e-08 M

Q: Lab note: record IC50 of COc1cccc(-n2nnc3cnc(Nc4cccc(NC(C)=O)c4)nc32)c1 tested on GSK3β (Homo sapiens).
Ans: < 1e-08 M

Q: Lab note: record IC50 of COCc1cccc(-n2nnc3cnc(Nc4cccc(C#N)c4)nc32)c1 tested on GSK3β (Homo sapiens).
Ans: < 1e-08 M

Q: Lab note: record IC50 of COc1cc(Nc2ncc3nnn(-c4cccc(CCO)c4)c3n2)ccc1F tested on GSK3β (Homo sapiens).
Ans: < 1e-08 M

Q: Lab note: record IC50 of N#CCc1cccc(-n2nnc3cnc(Nc4ccc(C(N)=O)cc4)nc32)c1 tested on GSK3β (Homo sapiens).
Ans: < 1e-08 M

Q: Lab note: record IC50 of COCc1cccc(-n2nnc3cnc(Nc4cccc(CNC(C)=O)c4)nc32)c1 tested on GSK3β (Homo sapiens).
Ans: < 1e-08 M
